assay: DTT reduction kinetics of compound 4; assay type: physicochemical; conditions: 25 mM DTT solution (chemical reduction); read-out: DTT reduction t1/2 (minute) 25 mM
value-kind: half-life (min)

{"columns": ["record-smiles", "number"],
 "data": [
  ["COC(=O)NCCOC(OCCNC(=O)OC)c1ccc(N=[N+]=[N-])cc1", 14.2]
]}

---

assay: DTT reduction kinetics of compound 4; assay type: physicochemical; conditions: 100 mM DTT solution (chemical reduction); read-out: DTT reduction t1/2 (minute) 100 mM
value-kind: half-life

{"columns": ["compound", "value-kind", "result"],
 "data": [
  ["COC(=O)NCCOC(OCCNC(=O)OC)c1ccc(N=[N+]=[N-])cc1 [Compound 4]", "half-life", "7.21 min"]
]}

---

assay: DTT reduction kinetics of compound 4; type: physicochemical; settings: 10 mM DTT solution (chemical reduction); read-out: DTT reduction t1/2 (minute) 10 mM
value-kind: half-life

{"columns": ["record-smiles", "result"],
 "data": [
  ["COC(=O)NCCOC(OCCNC(=O)OC)c1ccc(N=[N+]=[N-])cc1", "26.4 min"]
]}

---

experiment: Acid-catalyzed hydrolysis kinetics of model azido-acetal 4 and its reduced form 5; format: physicochemical; details: buffer, pH 4

{"columns": ["record-smiles", "half-life [min]"],
 "data": [
  ["COC(=O)NCCOC(OCCNC(=O)OC)c1ccc(N=[N+]=[N-])cc1", 3.4]
]}
